- target or system: Sphingosine 1-phosphate receptor 5 (Homo sapiens)
- Sequence (Q9H228 whole entry): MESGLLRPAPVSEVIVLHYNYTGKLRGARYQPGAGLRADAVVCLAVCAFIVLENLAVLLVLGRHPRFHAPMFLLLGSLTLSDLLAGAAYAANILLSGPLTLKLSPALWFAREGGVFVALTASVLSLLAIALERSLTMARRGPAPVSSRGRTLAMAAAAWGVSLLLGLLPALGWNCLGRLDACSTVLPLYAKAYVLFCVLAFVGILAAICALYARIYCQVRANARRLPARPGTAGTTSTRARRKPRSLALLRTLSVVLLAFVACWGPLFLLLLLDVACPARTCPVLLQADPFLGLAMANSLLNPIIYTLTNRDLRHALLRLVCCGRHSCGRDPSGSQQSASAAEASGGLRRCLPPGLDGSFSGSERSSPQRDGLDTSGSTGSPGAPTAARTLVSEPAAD
- test summary: Agonist activity at recombinant human S1PR5 expressed in CHO cell membranes assessed as [35S]GTP-gammaS binding measured after 1.5 hrs by TopCount scintillation counting method
metric name: log10(EC50) (log10 of the value in nM)
# values: log10(EC50), units nM

For orientation, consider the following solved cases.
molecule | log10(EC50)
O=C(O)CNCc1cc2c(-c3ccc4ccccc4c3)cccc2s1 | 1.71
O=C(O)CCCCNCc1cc2cc(-c3ccc4ccccc4c3)ccc2s1 | 2.85
Cc1cccc(-c2cccc3cc(CNCCCC(=O)O)sc23)c1 | 4.01
O=C(O)Cc1cccc(NCc2cc3cc(-c4ccc5ccccc5c4)ccc3s2)c1 | 2.89
CCc1ccccc1-c1cccc2cc(CNCCCCC(=O)O)sc12 | 3.40
Cc1ccc(-c2cccc3cc(CNCCCC(=O)O)sc23)cc1 | 3.45

State the recorded log10(EC50) for every item in the following list.
1. CCc1ccccc1-c1cccc2cc(CNCCC(=O)O)sc12
2. O=C(O)CNCc1cc2cc(-c3ccc4ccccc4c3)ccc2s1
3. O=C(O)Cc1ccc(NCc2cc3cccc(-c4ccc5ccccc5c4)c3s2)cc1

1: 3.41; 2: 2.54; 3: 3.60
